The reported numbers originate from patent US12493040B2.

Test system: RNAi-treated eri-1 (mg366) nematodes
Test: RNAi screening of olfactory receptor genes: chemotaxis assay of RNAi-treated nematodes to odorants
Format: in vivo, Caenorhabditis elegans
Details: srh-10 RNAi-treated nematodes; repellent or high concentration of attractant
Label label 1 for high-side chemotaxis index (at or above -0.9) and label 0 for low-side chemotaxis index (below it).

smiles_notation: O=Cc1ccccc1
assay_target: RNAi-treated eri-1 (mg366) nematodes
assigned_class: label 0
//
smiles_notation: CCCCCCCCO
assay_target: RNAi-treated eri-1 (mg366) nematodes
assigned_class: label 1
//
smiles_notation: CC(C)CCO
assay_target: RNAi-treated eri-1 (mg366) nematodes
assigned_class: label 0
//
smiles_notation: CC(=O)C(C)=O
assay_target: RNAi-treated eri-1 (mg366) nematodes
assigned_class: label 1
